# testedSystem: Glutathione S-transferase P (Homo sapiens)
# procedureSummary: Induction of GSTP1 degradation in human HeLa cells at 40 to 80 uM measured after 3 hrs by Western blot analysis
# Type: cell-based
# reportedConditions: dose 40-80 µM
Active and inactive are the calls of the source. The calls are words filed in the database; no cut-off is given here.
Thanks in advance; please answer with one of these: active, inactive

Q: How was `C=C(CC)C(=O)c1ccc(OCC(=O)NCCCCCCNC(=O)CC23CC4CC(CC(C4)C2)C3)c(Cl)c1Cl` classified in this test?
Result: active

###

# testedSystem: UniProtKB P09211
# Sequence (P09211 2-210 limits assumed): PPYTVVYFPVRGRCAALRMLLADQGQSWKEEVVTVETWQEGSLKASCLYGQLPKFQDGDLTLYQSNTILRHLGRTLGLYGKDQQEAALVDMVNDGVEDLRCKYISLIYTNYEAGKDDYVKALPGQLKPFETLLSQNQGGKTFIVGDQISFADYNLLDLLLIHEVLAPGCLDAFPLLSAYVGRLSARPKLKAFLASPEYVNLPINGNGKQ
# procedureSummary: Induction of GSTP1 degradation in human HeLa cells at 40 to 80 uM measured after 3 hrs by Western blot analysis
# Type: cell-based
# reportedConditions: dose 40-80 µM
Active and inactive are the calls of the source. The rule behind the calls is not given here.
measurementType: Activity

Consider the following illustrative entries.
- smilesRepresentation: "C=C(CC)C(=O)c1ccc(OCC(=O)OCCOC23CC4CC(CC(C4)C2)C3)c(Cl)c1Cl"
  Activity: "inactive"
- smilesRepresentation: "C=C(CC)C(=O)c1ccc(OCC(=O)NCCNC(=O)CC23CC4CC(CC(C4)C2)C3)c(Cl)c1Cl"
  Activity: "Active"
- smilesRepresentation: "C=C(CC)C(=O)c1ccc(OCC(=O)NC23CC4CC(CC(C4)C2)C3)c(Cl)c1Cl"
  Activity: "Active"
- smilesRepresentation: "C=C(CC)C(=O)c1ccc(OCC(=O)NCCCCNC(=O)CC23CC4CC(CC(C4)C2)C3)c(Cl)c1Cl"
  Activity: "Active"

Q: Give its Activity value. Item: `C=C(CC)C(=O)c1ccc(OCC(=O)OCCOCCOCCOCCOC23CC4CC(CC(C4)C2)C3)c(Cl)c1Cl`
Result: inactive

Q: Ok, now `C=C(CC)C(=O)c1ccc(OCC(=O)OCCOCCOCCOC23CC4CC(CC(C4)C2)C3)c(Cl)c1Cl`
Result: inactive

Q: What about this compound? `C=C(CC)C(=O)c1ccc(OCC(=O)OCCOCCOC23CC4CC(CC(C4)C2)C3)c(Cl)c1Cl`
Result: inactive
